- System: Ki67
- experiment summary: In vivo GBM rat model: immunohistochemical examination
- measurement context: tumor cells, brain tissues, GBM rats, 30 mg/kg oral, 5 days
reported property: expression of Ki67

Asked: Which expression of Ki67 is reported for this molecule? O=C1CCc2cc(OS(=O)(=O)c3cccc4ccccc34)ccc2N1 [TR-G045]
Given back: moderate

Asked: Further, for CC(C)CCOc1ccc2c(c1)CCC(=O)N2 [TR-G002] ?
Given back: mild

Asked: Further, for COc1cc(NC(=O)COc2ccc3c(c2)CCC(=O)N3)cc(OC)c1 [TR-G091] ?
Given back: moderate

Asked: Further, for C=CCOC(=O)COc1ccc2c(c1)CCC(=O)N2 [TR-G071] ?
Given back: moderate
